Numbers sourced from ChEMBL document CHEMBL1144773.

Assay: Antiinflammatory activity in human neutrophils assessed as inhibition of formyl-L-methionyl-L-leucyl-L-phenylalanine/cytochalasin B-induced elastase release
Assay type: functional, cell-based
Settings: Neutrophil
pIC50: −log10 of the molar value.
Listing: pIC50 of selected compounds
parameterMeasured: pIC50

1. Cn1c2ccccc2c(=O)c2ccoc21: < 4.30
2. COc1c2c(c3ccc(=O)oc3c1/C=C/C(C)(C)O)OC(C)(C)C=C2: 4.49
3. COc1cc2ccc(=O)oc2cc1O: < 4.30
4. COc1cc([C@@H]2OC[C@@H]3[C@H]2CO[C@H]3c2cc(OC)c(O)c(OC)c2)cc(OC)c1O: < 4.30
5. COc1cc(=O)n(C)c2ccccc12: < 4.30
6. COc1cc(=O)[nH]c2c(OC)cccc12: < 4.30
7. COc1cc(/C=C\C(=O)OC[C@H]2[C@@H](Cc3cc(OC)c(O)c(OC)c3)CO[C@@H]2c2cc(OC)c(O)c(OC)c2)ccc1O: 4.54
8. COc1c2c(cc3ccc(=O)oc13)C=CC(C)(C)O2: < 4.30
9. COc1cc([C@@H]2Oc3cc(/C=C/C=O)cc(OC)c3O[C@H]2CO)cc(OC)c1O: < 4.30
10. COc1c2ccoc2nc2c(O)cccc12: < 4.30
11. COc1cc2ccc(=O)oc2cc1OC: < 4.30
12. COc1c2ccoc2nc2c(OC)cccc12: < 4.30
13. COc1cc2ccc(=O)oc2c(OC)c1OC: < 4.30
14. COc1ccc2c(OC)c3ccoc3nc2c1OC: 4.72
15. COc1cc([C@@H]2Oc3c(c(OC)cc4ccc(=O)oc34)O[C@H]2CO)cc(OC)c1O: < 4.30
